Values compiled from ChEMBL document CHEMBL3871302.

biological target: Glucocorticoid receptor (Homo sapiens); assay: Agonist activity at GR in human HepG2 cells assessed as protein mediated-transcriptional activity by MMTV-promoter driven luciferase reporter gene assay; format: cell-based
MEASURED_PARAMETER: Efficacy

>>> df
                                     smiles  result
0  CCCCC#C[C@]1(O)CC[C@H]2[C@@H]3CCc4cc(C(=O)Nc5cccnc5C)ccc4[C@H]3[C@@H](O)C[C@@]21C     56%
1  Cc1ncccc1NC(=O)c1ccc2c(c1)CC[C@@H]1[C@@H]2[C@@H](O)C[C@@]2(C)[C@H]1CC[C@@]2(O)C#C[Si](C)(C)C    110%
2  CC#C[C@]1(O)CC[C@H]2[C@@H]3CCc4cc(C(=O)Nc5cccnc5C)ccc4[C@H]3[C@@H](OCc3ccccc3Cl)C[C@@]21C    0.6%
3  CC#C[C@]1(O)CC[C@H]2[C@@H]3CCc4cc(C(=O)Nc5ccncc5C)ccc4[C@H]3[C@@H](O)C[C@@]21C     12%
4  CC#C[C@]1(O)CC[C@H]2[C@@H]3CCc4cc(C(=O)Nc5ncccc5C)ccc4[C@H]3[C@@H](O)C[C@@]21C     92%
5  Cc1ncccc1NC(=O)c1ccc2c(c1)CC[C@@H]1[C@@H]2[C@@H](O)C[C@]2(C)[C@@H](O)CC[C@@H]12    0.4%
6  Cc1ncccc1NC(=O)c1ccc2c(c1)CC[C@@H]1[C@@H]2[C@@H](O)C[C@@]2(C)[C@H]1CC[C@]2(C)O   -0.5%
7  CC#C[C@]1(O)CC[C@H]2[C@@H]3CCc4cc(C(=O)Nc5cccnc5C)ccc4[C@H]3[C@H](O)C[C@@]21C   19.4%
